Tested on: Salmonella enterica typhimurium
experiment notes: growth AUC normalised to DMSO control (fraction of control); higher = less growth inhibition, active = hit call of the paper
condition context: 20 µM
Counter-ions that a name gives are not always drawn.
Measured growth AUC normalised to DMSO control accompanies every entry in the list below.

- compound: "CN(C/C=C/c1ccccc1)Cc1cccc2ccccc12 [Naftifine hydrochloride]"
  study target: "Salmonella enterica typhimurium"
  growth AUC normalised to DMSO control: 1.01
- compound: "Cc1cccc(Nc2ccccc2C(=O)O)c1C"
  study target: "Salmonella enterica typhimurium"
  growth AUC normalised to DMSO control: 1
- compound: "CC(=O)Nc1c(I)c(C(=O)N[C@H]2C(O)O[C@H](CO)[C@@H](O)[C@@H]2O)c(I)c(N(C)C(C)=O)c1I (stereo partly specified) [Metrizamide]"
  study target: "Salmonella enterica typhimurium"
  growth AUC normalised to DMSO control: 1.01
- compound: "CC(=O)O[C@]1(C(C)=O)CC[C@H]2[C@@H]3C=C(Cl)C4=CC(=O)[C@@H]5C[C@@H]5[C@]4(C)[C@H]3CC[C@@]21C [Cyproterone acetate]"
  study target: "Salmonella enterica typhimurium"
  growth AUC normalised to DMSO control: 1
- compound: "O=C(O)CNC(=O)C(CS)Cc1ccccc1 (stereo unspecified)"
  study target: "Salmonella enterica typhimurium"
  growth AUC normalised to DMSO control: 1.02
- compound: "CCC1NC(=O)c2cc(S(N)(=O)=O)c(Cl)cc2N1 (stereo unspecified)"
  study target: "Salmonella enterica typhimurium"
  growth AUC normalised to DMSO control: 1.01

###

Test system: Shigella flexneri
experiment notes: growth AUC normalised to DMSO control (fraction of control); higher = less growth inhibition, active = hit call of the paper
condition context: 20 µM
Where a name gives a salt, the structure may show the parent alone.
Recorded growth AUC normalised to DMSO control values for a group of compounds are listed next.

- compound: "N=C(N)N/N=C/c1c(Cl)cccc1Cl [Guanabenz acetate]"
  study target: "Shigella flexneri"
  growth AUC normalised to DMSO control: 0.998
- compound: "Nc1ccc(C(=O)O)c(O)c1"
  study target: "Shigella flexneri"
  growth AUC normalised to DMSO control: 1.01
- compound: "O=C(O)c1cc(-c2ccc(F)cc2F)ccc1O"
  study target: "Shigella flexneri"
  growth AUC normalised to DMSO control: 0.997
- compound: "CC(=O)OCC(=O)[C@@]12OC3(CCCC3)O[C@@H]1C[C@H]1[C@@H]3CCC4=CC(=O)C=C[C@]4(C)[C@@]3(F)[C@@H](O)C[C@@]12C [Amcinonide]"
  study target: "Shigella flexneri"
  growth AUC normalised to DMSO control: 1.02
- compound: "C=CCN1CCCC1CNC(=O)c1cc2nn[nH]c2cc1OC (centres undefined) [Alizapride hydrochloride]"
  study target: "Shigella flexneri"
  growth AUC normalised to DMSO control: 1
- compound: "CC(=O)O[C@H]1C[C@@]2(C)[C@@H](C[C@@H](O)[C@H]3[C@@]4(C)CC[C@@H](O)[C@@H](C)[C@@H]4CC[C@@]32C)/C1=C(\\CCC=C(C)C)C(=O)O [Fusidic acid sodium salt]"
  study target: "Shigella flexneri"
  growth AUC normalised to DMSO control: 0.974
- compound: "NC1CCN(c2c(F)cc3c(=O)c(C(=O)O)cn(C4CC4)c3c2Cl)C1 (centres undefined)"
  study target: "Shigella flexneri"
  growth AUC normalised to DMSO control: 0.0463
- compound: "CCOC(=O)n1ccn(C)c1=S"
  study target: "Shigella flexneri"
  growth AUC normalised to DMSO control: 1
- compound: "COc1nc(C)nc(Cl)c1NC1=NCCN1"
  study target: "Shigella flexneri"
  growth AUC normalised to DMSO control: 1.03

###

Tested on: S. enterica typhimurium tolC KO
experiment notes: growth AUC normalised to DMSO control (median) (fraction of control); higher = less growth inhibition, active = hit call of the paper
condition context: 20 µM
Where a name gives a salt, the structure may show the parent alone.
growth AUC normalised to DMSO control reference

- compound: "OCCN1C[C@H](O)[C@@H](O)[C@H](O)[C@H]1CO"
  growth AUC normalised to DMSO control: 0.988
- compound: "Nc1ccc(S(=O)(=O)Nc2cnc3ccccc3n2)cc1 [Sulfaquinoxaline sodium salt]"
  growth AUC normalised to DMSO control: 1
- compound: "COc1ccccc1OCC(O)CO (configuration not stated)"
  growth AUC normalised to DMSO control: 0.99
- compound: "CC(C)NCC(O)c1ccc(O)c(O)c1 (single isomer, unassigned; (-)) [(-) Isoproterenol hydrochloride]"
  growth AUC normalised to DMSO control: 0.992
- compound: "CC(C)(Oc1ccc(Cl)cc1)C(=O)O"
  growth AUC normalised to DMSO control: 1
- compound: "Cc1nccn1CC1CCc2c(c3ccccc3n2C)C1=O (configuration not stated) [Ondansetron hydrochloride]"
  growth AUC normalised to DMSO control: 0.984
- compound: "CN1CCC[C@@H]1Cc1c[nH]c2ccc(CCS(=O)(=O)c3ccccc3)cc12"
  growth AUC normalised to DMSO control: 0.958
- compound: "CCOC(=O)[C@H](CCc1ccccc1)N[C@@H](C)C(=O)N1[C@H](C(=O)O)C[C@@H]2CCC[C@@H]21"
  growth AUC normalised to DMSO control: 1
- compound: "O=C(O)CNC(=O)C(CS)Cc1ccccc1 (configuration not stated)"
  growth AUC normalised to DMSO control: 0.995
- compound: "COc1cc(C)nc(-n2nc(C)cc2OC)n1 [Epirizole]"
  growth AUC normalised to DMSO control: 1.01
- compound: "Oc1ncnc2[nH]ncc12"
  growth AUC normalised to DMSO control: 0.99
- compound: "CC1(C)O[C@@H]2C[C@H]3[C@@H]4CCC5=CC(=O)CC[C@]5(C)[C@@]4(F)[C@@H](O)C[C@]3(C)[C@]2(C(=O)CCl)O1 [Halcinonide]"
  growth AUC normalised to DMSO control: 0.967

###

Measured growth AUC normalised to DMSO control, listed per entry.
Test system: P. vulgatus RND KO
experiment notes: growth AUC normalised to DMSO control (median) (fraction of control); higher = less growth inhibition, active = hit call of the paper
condition context: 20 µM
Structures can show the parent of a compound that is named as a salt.

- compound: "Nc1ccc(S(=O)(=O)Nc2nccs2)cc1"
  growth AUC normalised to DMSO control: "0.995 (inactive)"
- compound: "NC(=O)c1ncn([C@@H]2O[C@H](CO)[C@@H](O)[C@H]2O)n1"
  growth AUC normalised to DMSO control: "0.987 (inactive)"
- compound: "NS(=O)(=O)c1cc2c(cc1C(F)(F)F)NCNS2(=O)=O [Hydroflumethiazide]"
  growth AUC normalised to DMSO control: "1.02 (inactive)"
- compound: "CCCCCCCCNC(C)C(O)c1ccc(SC(C)C)cc1 (stereo not given)"
  growth AUC normalised to DMSO control: "0.992 (inactive)"
- compound: "COCCc1ccc(OCC(O)CNC(C)C)cc1 (stereo not drawn) [Metoprolol-(+)-tartrate salt]"
  growth AUC normalised to DMSO control: "1.01 (inactive)"
- compound: "CCOC(=O)OC(C)OC1=C(C(=O)Nc2ccccn2)N(C)S(=O)(=O)c2ccccc21 (stereo not given)"
  growth AUC normalised to DMSO control: "0.999 (inactive)"
- compound: "CC(N)C12CC3CC(CC(C3)C1)C2 (stereo not given) [Rimantadine hydrochloride]"
  growth AUC normalised to DMSO control: "0.978 (inactive)"
- compound: "O=C(O)CCCC[C@@H]1SC[C@@H]2NC(=O)N[C@@H]21"
  growth AUC normalised to DMSO control: "1.01 (inactive)"
- compound: "CCC1(c2ccccc2)NC(=O)N(C)C1=O (stereo not given)"
  growth AUC normalised to DMSO control: "1 (inactive)"
- compound: "CCN1CCCC1CNC(=O)c1cc(S(=O)(=O)CC)c(N)cc1OC (stereo not given) [Amisulpride]"
  growth AUC normalised to DMSO control: "1.02 (inactive)"
- compound: "N[C@@H](Cc1c[nH]c2ccccc12)C(=O)O"
  growth AUC normalised to DMSO control: "1 (inactive)"
- compound: "CC(=O)OCC(=O)NCCCOc1cccc(CN2CCCCC2)c1 [Roxatidine acetate hydrochloride]"
  growth AUC normalised to DMSO control: "0.996 (inactive)"
- compound: "Clc1cccc(Cl)c1NC1=NCCN1 [Clonidine hydrochloride]"
  growth AUC normalised to DMSO control: "0.998 (inactive)"
- compound: "CC(C)[C@H]1CC[C@H](C(=O)N[C@H](Cc2ccccc2)C(=O)O)CC1 [Nateglinide]"
  growth AUC normalised to DMSO control: "0.977 (inactive)"
- compound: "C=C1[C@H](CO)[C@@H](O)C[C@@H]1n1cnc2c(=O)[nH]c(N)nc21"
  growth AUC normalised to DMSO control: "1 (inactive)"
